Source: patent US20250361268A1

This section presents binders with their documented EC50 for [Ca2+] values.
- target-or-test-system: T1, FPR1 (UniProt P21462 1-350, limits assumed)
- T1 sequence (looked up): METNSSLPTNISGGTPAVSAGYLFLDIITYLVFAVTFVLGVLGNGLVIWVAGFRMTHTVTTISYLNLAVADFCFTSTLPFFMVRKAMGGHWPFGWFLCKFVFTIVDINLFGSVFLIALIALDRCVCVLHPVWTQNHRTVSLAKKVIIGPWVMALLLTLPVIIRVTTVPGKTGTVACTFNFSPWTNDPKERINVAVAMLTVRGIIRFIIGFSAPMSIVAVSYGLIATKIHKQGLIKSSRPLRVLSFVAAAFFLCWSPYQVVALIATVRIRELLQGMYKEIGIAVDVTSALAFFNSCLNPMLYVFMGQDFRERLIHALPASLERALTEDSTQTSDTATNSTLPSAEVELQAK
- assay-summary: cell-based or functional assay
parameter: EC50 for [Ca2+]

binder	experimental-result
RWRYRTM (HELM PEPTIDE1{R.W.R.Y.R.T.[dM].[am]}$$$$V2.0; N-terminus assumed; SMILES CSCC[C@@H](NC(=O)[C@@H](NC(=O)[C@H](CCCNC(=N)N)NC(=O)[C@H](Cc1ccc(O)cc1)NC(=O)[C@H](CCCNC(=N)N)NC(=O)[C@H](Cc1c[nH]c2ccccc12)NC(=O)[C@@H](N)CCCNC(=N)N)[C@@H](C)O)C(N)=O) [peptide of SEQ ID NO 153]	> 10 µM
IKYKPM (HELM PEPTIDE1{[CCCC(=O)[*:2]].I.K.Y.K.P.[dM].[am]}$$$$V2.0; SMILES CCCC(=O)N[C@H](C(=O)N[C@@H](CCCCN)C(=O)N[C@@H](Cc1ccc(O)cc1)C(=O)N[C@@H](CCCCN)C(=O)N1CCC[C@H]1C(=O)N[C@H](CCSC)C(N)=O)[C@@H](C)CC) [peptide of SEQ ID NO 144]	> 10 µM
RMRYKYM (HELM PEPTIDE1{R.M.R.Y.K.Y.[dM].[am]}$$$$V2.0; N-terminus assumed; SMILES CSCC[C@H](NC(=O)[C@@H](N)CCCNC(=N)N)C(=O)N[C@@H](CCCNC(=N)N)C(=O)N[C@@H](Cc1ccc(O)cc1)C(=O)N[C@@H](CCCCN)C(=O)N[C@@H](Cc1ccc(O)cc1)C(=O)N[C@H](CCSC)C(N)=O) [peptide of SEQ ID NO 38]	> 10 µM
